Where do the numbers come from? From patent US8257698B2.

- Test system: MGLL
- protocol_details: Kinetic analysis: hydrolysis of 4-methyl coumarin butyrate (4MC-B) by MGLL constructs
- Type: biochemical, human
- setup_conditions: substrate 4MC-B; 4-5 nM MGLL, 20 mM Pipes pH 7, 150 mM NaCl, 37° C.; average of 2 or 4 separate assays
Quick rule for you: Km under 90 µM gets t, anything else gets f.

Example results:
mut-MGLL. 1-303, L167Q, L174Q: engineered form of human MGLL, cap mutations (protein) MVDHHHHHHENLYFQGMPEESSPRRTPQSIPYQDLPHLVNADGQYLFCRYWKPTGTPKALIFVSHGAGEHSGRYEELARMLMGLDLLVFAHDHVGHGQSEGERMVVSDFHVFVRDVLQHVDSMQKDYPGLPVFLLGHSMGGAIAILTAAERPGHFAGMVLISPLVLANPESATTFKVLAAKVQNLVLPNQSLGPIDSSVLSRNKTEVDIYNSDPLICRAGLKVCFGIQLLNAVSRVERALPKLTVPFLLLQGSADRLCDSKGAYLLMELAKSQDKTLKIYEGAYHVLHKELPEVTNSVFHEINMWVSQRTATAGTASPP | t
mut-MGLL 9-297, L169S, L176S: engineered form of human MGLL, cap mutations plus truncation (protein, UniProt Q99685 9-297, looked up, variant L169S L176S) RTPQSIPYQDLPHLVNADGQYLFCRYWKPTGTPKALIFVSHGAGEHSGRYEELARMLMGLDLLVFAHDHVGHGQSEGERMVVSDFHVFVRDVLQHVDSMQKDYPGLPVFLLGHSMGGAIAILTAAERPGHFAGMVLISPLVLANPESATTFKVLAAKVLNSVLPNLSSGPIDSSVLSRNKTEVDIYNSDPLICRAGLKVCFGIQLLNAVSRVERALPKLTVPFLLLQGSADRLCDSKGAYLLMELAKSQDKTLKIYEGAYHVLHKELPEVTNSVFHEINMWVSQRTATA | f

Okay, now this molecule:
Would you kindly verify if Km of mut-MGLL 1-303, L171Q: engineered form of human MGLL, cap mutation (protein) MVDHHHHHHENLYFQGMPEESSPRRTPQSIPYQDLPHLVNADGQYLFCRYWKPTGTPKALIFVSHGAGEHSGRYEELARMLMGLDLLVFAHDHVGHGQSEGERMVVSDFHVFVRDVLQHVDSMQKDYPGLPVFLLGHSMGGAIAILTAAERPGHFAGMVLISPLVLANPESATTFKVLAAKVLNLVQPNLSLGPIDSSVLSRNKTEVDIYNSDPLICRAGLKVCFGIQLLNAVSRVERALPKLTVPFLLLQGSADRLCDSKGAYLLMELAKSQDKTLKIYEGAYHVLHKELPEVTNSVFHEINMWVSQRTATAGTASPP is strictly less than 90 µM?
f
